Test system: intact endothelium rat aortic rings
Assay: NE-induced contraction of intact rat aortic rings after 16 h incubation with LPS and/or PKC inhibitors
Type: cell-based
Settings: Rattus norvegicus, 16 h, intact endothelium; LPS-treated media (10 ng/ml), alone or plus inhibitor 25 μM, 16 h; read-out: EC50 value for NE stimulated contraction (EC50 of the agonist NE)
What EC50 was measured for each of the following?
Hi! Could you send only the number? It should be in nM, unit omitted.

Problem: Please give measured EC50 of the following entry: N=C(N)NCCNS(=O)(=O)c1cccc2cnccc12
Solution: 2760

Problem: Please indicate EC50 recorded for CC1CNCCN1S(=O)(=O)c1cccc2cnccc12 (centres unmarked)
Solution: 99
